Listed here are sequences together with their documented PBM binding z-score.
Tested on: PXR:RXRa (NR concentration 270 nM, RXRa partner concentration 90 nM)
run.description: PBM binding z-score (relative to random genomic background probes); higher = stronger binding; sequences stand for … in GC…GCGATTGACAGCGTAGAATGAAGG
// return a plain number; no unit text

- GGAACGCGGGCAAGTTGATAGCAGAGTTTGATGG: -0.588

Quick check: PBM binding z-score of "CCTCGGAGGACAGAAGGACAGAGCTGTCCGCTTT" ?
-0.689

Quick check: PBM binding z-score of "CGTCCAAGGTCAAAGGTCAGTGAGGAGATGACGG" ?
7.08

Quick check: PBM binding z-score of "CTAACTAGGTCAAGAGGTCAAAGTCCGCTTCCCG" ?
6.07

Quick check: PBM binding z-score of "TAGCCTAGGTCATGCCGGCCAGTATAGTGTCGGC" ?
0.798

Quick check: PBM binding z-score of "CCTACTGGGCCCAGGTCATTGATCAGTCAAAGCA" ?
1.72

Quick check: PBM binding z-score of "ATATGTAGGTTATCGGGTCATTCAGTTTGCGCAT" ?
3.75

Quick check: PBM binding z-score of "CATACAGGGTCAGGTAGGCCAGAGTAGGGACGGC" ?
2.23

Quick check: PBM binding z-score of "TCTTGTAGATCAGCTGGTTAAGAAAGCTGGCCAA" ?
0.0917

Quick check: PBM binding z-score of "TCTCGGAGGACAAGAAGGTCAGAGCTTTCCAGAG" ?
1.71

Quick check: PBM binding z-score of "ACTAGTTGGTCAGCTGAGGTCACGCACAATTCGG" ?
5.57

Quick check: PBM binding z-score of "ATATGTAGGTTAGATGGGGTCATTCAGACTAGGC" ?
6.56

Quick check: PBM binding z-score of "ATACCAAGGTGATCGTGCGGTCGTTGATACTAAC" ?
0.16

Quick check: PBM binding z-score of "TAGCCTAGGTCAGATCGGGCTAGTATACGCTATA" ?
0.63

Quick check: PBM binding z-score of "CAAACTCGGTCACGAAAGGTCAAAGTCGAATGAC" ?
6.39

---

Test system: PPARa:RXRa (NR concentration 270 nM, RXRa partner concentration 90 nM)
run.description: PBM binding z-score (relative to random genomic background probes); higher = stronger binding; sequences stand for … in GC…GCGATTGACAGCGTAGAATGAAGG
Listed here are sequences together with their documented PBM binding z-score.

* ACAGACAGGTGATGAAGGTAACTCAAGCTATCAT | 0.0252
* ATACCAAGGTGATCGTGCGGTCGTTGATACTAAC | 0.0191
* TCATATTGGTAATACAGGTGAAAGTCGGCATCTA | 1.79

State its PBM binding z-score on PPARa:RXRa (NR concentration 270 nM, RXRa partner concentration 90 nM): "GATACAGGGTCAGCTAGAGGCCAGATTATGGAAA"
4.42

State its PBM binding z-score on PPARa:RXRa (NR concentration 270 nM, RXRa partner concentration 90 nM): "TCATATAGGTAAAGGTGAAAGTTGAACGATATGA"
4.3

State its PBM binding z-score on PPARa:RXRa (NR concentration 270 nM, RXRa partner concentration 90 nM): "GCGACTGGGGCATCAGCAGGTTACAATAACTTAA"
1.24

State its PBM binding z-score on PPARa:RXRa (NR concentration 270 nM, RXRa partner concentration 90 nM): "GCTAGCAGGCCATTTGGGTCACTCCATGACGGGC"
0.964

State its PBM binding z-score on PPARa:RXRa (NR concentration 270 nM, RXRa partner concentration 90 nM): "GCGACTCGGGCAAAGCAGGTTACCATAAGGTTGG"
0.221

State its PBM binding z-score on PPARa:RXRa (NR concentration 270 nM, RXRa partner concentration 90 nM): "GCTAGCAGGCCATTTGCGTCACTCAATGACGGGC"
-0.622

State its PBM binding z-score on PPARa:RXRa (NR concentration 270 nM, RXRa partner concentration 90 nM): "ACTCAGAGGACAAAGGTCAGAGCTACGCCAGTGA"
5.3

State its PBM binding z-score on PPARa:RXRa (NR concentration 270 nM, RXRa partner concentration 90 nM): "AGTCAAAGTTTACTAGGTAACGTAAGATTCAGCT"
2.28

Values from the supplement of paper PMC6555819
